These measurements were taken from the RNAGym collection of RNA variant scans (doi:10.7554/elife.80360).

So I've got a bunch of variants here, and I need their self-cleavage values.
B1: Hairpin Ribozyme (parent)
chain: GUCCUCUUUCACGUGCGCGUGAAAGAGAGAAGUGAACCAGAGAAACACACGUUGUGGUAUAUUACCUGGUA

- Variants of: B1
- Method summary: self-cleavage, relative activity (ratio to wild type); higher = more cleavage; co-transcriptional
Returns: the value as a bare number; no unit string appended.

Record GUCCUCUUUCACGUGCGCGUGAAAGUGAGAAGUGAACCAGAGAAACACACGUUGUGGUAUAUUACCGGGUA [A26U U67G] . Reported self-cleavage: 0.2

Record GUCCUCUUUCACGUGCGCGUGAAAGAGAGAAGUCAACCCGAGAAACACACGUUGUGGUAUAUUACCUGGUA [G34C A39C] . Reported self-cleavage: 0.9

Record GUCCUCUGUCACGUGCGCGUGAAAGAUAGAAGUGAACCAGAGAAACACACGUUGUGGUAUAUUACCUGGUA [U8G G27U] . Reported self-cleavage: 0.289

Record GUCCUCUUUCACGUGCGCGUGAAAGAGAAAAGUGAACCAGAGAAACACAGGUUGUGGUAUAUUACCUGGUA [G29A C50G] . Reported self-cleavage: 0.187

Record GUCCUCUUUCACGUGCGCGUGAAAGAGAGAAGUGAACCAGAGCAACACACGGUGUGGUAUAUUACCUGGUA [A43C U52G] . Reported self-cleavage: 0.164
